The measurements presented in this section are drawn from ChEMBL document CHEMBL3862031.

Test: Cytotoxicity against human A549 cells after 72 hrs by MTT assay
Format: functional, cell-based
Details: A549, 72 h
Readout Type: pIC50
Please report pIC50 as the negative decimal logarithm of the molar concentration, giving only the number.

Tell me measured pIC50 for CNC(=O)c1cc(Oc2ccc(C(=O)/C=C/c3ccc(C#N)cc3)cc2)ccn1 please.
4.58

Tell me measured pIC50 for CNC(=O)c1cc(Oc2ccc(C(=O)/C=C/c3ccc(F)cc3)cc2)ccn1 please.
4.73

Tell me measured pIC50 for CNC(=O)c1cc(Oc2ccc(C(=O)/C=C/c3cc(OC)c(OC)c(OC)c3)cc2)ccn1 please.
5.02

Tell me measured pIC50 for CNC(=O)c1cc(Oc2ccc(C(=O)/C=C/c3ccc(F)cc3Cl)cc2)ccn1 please.
4.68

Tell me measured pIC50 for CNC(=O)c1cc(Oc2ccc(C(=O)/C=C/c3cccc(Br)c3)cc2)ccn1 please.
5.00

Tell me measured pIC50 for CNC(=O)c1cc(Oc2ccc(/C=C/C(=O)c3ccc(Br)cc3)cc2)ccn1 please.
4.70

Tell me measured pIC50 for CNC(=O)c1cc(Oc2ccc(NC(=O)Nc3ccc(Cl)c(C(F)(F)F)c3)cc2)ccn1 [SORAFENIB] please.
5.53

Tell me measured pIC50 for CNC(=O)c1cc(Oc2ccc(C(=O)/C=C/c3ccc(Cl)cc3Cl)cc2)ccn1 please.
5.02

Tell me measured pIC50 for CNC(=O)c1cc(Oc2ccc(C(=O)/C=C/c3ccccc3)cc2)ccn1 please.
5.30

Tell me measured pIC50 for CNC(=O)c1cc(Oc2ccc(C(=O)/C=C/c3ccc(Cl)c(Cl)c3)cc2)ccn1 please.
4.47

====

Hi there, I'd appreciate the recorded pIC50 for every entry that follows.
Assay: Cytotoxicity against human MCF7 cells after 72 hrs by MTT assay
Type: functional, cell-based
Conditions: MCF7, 72 h
Please report pIC50 as the negative decimal logarithm of the molar concentration, giving only the number.

Tell me measured pIC50 for CNC(=O)c1cc(Oc2ccc(C(=O)/C=C/c3ccccc3)cc2)ccn1 please.
5.22

Tell me measured pIC50 for CNC(=O)c1cc(Oc2ccc(/C=C/C(=O)c3ccc(Cl)cc3)cc2)ccn1 please.
4.76

Tell me measured pIC50 for CNC(=O)c1cc(Oc2ccc(NC(=O)Nc3ccc(Cl)c(C(F)(F)F)c3)cc2)ccn1 [SORAFENIB] please.
5.50

Tell me measured pIC50 for CNC(=O)c1cc(Oc2ccc(C(=O)/C=C/c3ccc(OC)c(OC)c3OC)cc2)ccn1 please.
5.54

Tell me measured pIC50 for CNC(=O)c1cc(Oc2ccc(C(=O)/C=C/c3cccc(Br)c3)cc2)ccn1 please.
4.98

Tell me measured pIC50 for CNC(=O)c1cc(Oc2ccc(C(=O)/C=C/c3cc(OC)c(OC)c(OC)c3)cc2)ccn1 please.
5.41

====

Molecular target: Vascular endothelial growth factor receptor 2 (Homo sapiens, UniProt P35968)
Sequence (P35968 whole entry): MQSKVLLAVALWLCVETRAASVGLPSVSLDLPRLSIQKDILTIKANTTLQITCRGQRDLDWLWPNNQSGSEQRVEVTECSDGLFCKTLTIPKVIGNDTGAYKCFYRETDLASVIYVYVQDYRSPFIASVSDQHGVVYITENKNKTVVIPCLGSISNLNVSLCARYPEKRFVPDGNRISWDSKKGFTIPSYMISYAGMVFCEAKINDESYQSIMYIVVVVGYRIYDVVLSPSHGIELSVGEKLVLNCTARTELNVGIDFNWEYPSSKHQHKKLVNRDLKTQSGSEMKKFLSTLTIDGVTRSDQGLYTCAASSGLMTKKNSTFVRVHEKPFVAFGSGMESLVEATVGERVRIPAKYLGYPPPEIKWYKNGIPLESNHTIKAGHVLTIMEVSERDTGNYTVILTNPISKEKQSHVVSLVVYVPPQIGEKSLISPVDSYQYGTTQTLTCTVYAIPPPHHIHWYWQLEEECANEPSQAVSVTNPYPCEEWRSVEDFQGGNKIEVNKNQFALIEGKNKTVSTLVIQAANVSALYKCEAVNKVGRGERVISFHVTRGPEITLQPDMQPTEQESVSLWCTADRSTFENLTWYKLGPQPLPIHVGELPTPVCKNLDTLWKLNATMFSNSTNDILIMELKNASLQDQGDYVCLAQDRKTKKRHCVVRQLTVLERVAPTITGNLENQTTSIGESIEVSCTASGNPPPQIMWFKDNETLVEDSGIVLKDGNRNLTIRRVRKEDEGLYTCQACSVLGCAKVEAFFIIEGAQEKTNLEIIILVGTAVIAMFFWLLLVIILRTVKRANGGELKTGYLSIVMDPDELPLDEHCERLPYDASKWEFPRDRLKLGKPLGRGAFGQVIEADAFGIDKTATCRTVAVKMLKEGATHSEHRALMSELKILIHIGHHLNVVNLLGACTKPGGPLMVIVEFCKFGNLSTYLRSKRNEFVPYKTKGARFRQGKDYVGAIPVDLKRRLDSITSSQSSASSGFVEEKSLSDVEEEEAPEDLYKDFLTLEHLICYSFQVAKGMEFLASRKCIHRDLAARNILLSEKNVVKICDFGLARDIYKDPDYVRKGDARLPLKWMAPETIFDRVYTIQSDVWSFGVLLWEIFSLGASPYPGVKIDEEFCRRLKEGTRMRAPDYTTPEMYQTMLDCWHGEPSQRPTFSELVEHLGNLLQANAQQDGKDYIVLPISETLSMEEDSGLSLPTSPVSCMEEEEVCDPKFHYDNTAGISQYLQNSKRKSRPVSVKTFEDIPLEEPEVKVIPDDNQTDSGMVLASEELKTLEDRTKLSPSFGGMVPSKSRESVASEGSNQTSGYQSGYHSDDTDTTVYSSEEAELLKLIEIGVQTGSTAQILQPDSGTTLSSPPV
Readout Type: IC50

Tell me measured IC50 for CNC(=O)c1cc(Oc2ccc(/C=C/C(=O)c3ccc(F)cc3)cc2)ccn1 please.
> 50 µM

====

Hi there, I'd appreciate the recorded pIC50 for every entry that follows.
Test: Cytotoxicity against human PC3 cells after 72 hrs by MTT assay
Assay type: functional, cell-based
Settings: PC-3, 72 h
Please report pIC50 as the negative decimal logarithm of the molar concentration, giving only the number.

Tell me measured pIC50 for CNC(=O)c1cc(Oc2ccc(C(=O)/C=C/c3cc(OC)c(OC)c(OC)c3)cc2)ccn1 please.
5.50

Tell me measured pIC50 for CNC(=O)c1cc(Oc2ccc(C(=O)/C=C/c3ccc(F)cc3Cl)cc2)ccn1 please.
5.32

Tell me measured pIC50 for CNC(=O)c1cc(Oc2ccc(C(=O)/C=C/c3ccc([N+](=O)[O-])cc3)cc2)ccn1 please.
4.96

Tell me measured pIC50 for CNC(=O)c1cc(Oc2ccc(C(=O)/C=C/c3cccc(Br)c3)cc2)ccn1 please.
5.47

Tell me measured pIC50 for CNC(=O)c1cc(Oc2ccc(C(=O)/C=C/c3ccccc3)cc2)ccn1 please.
5.50

Tell me measured pIC50 for CNC(=O)c1cc(Oc2ccc(C(=O)/C=C/c3ccc(Cl)c(Cl)c3)cc2)ccn1 please.
5.08

Tell me measured pIC50 for CNC(=O)c1cc(Oc2ccc(C(=O)/C=C/c3ccc(C#N)cc3)cc2)ccn1 please.
5.41

Tell me measured pIC50 for CNC(=O)c1cc(Oc2ccc(NC(=O)Nc3ccc(Cl)c(C(F)(F)F)c3)cc2)ccn1 please.
5.49

Tell me measured pIC50 for CNC(=O)c1cc(Oc2ccc(/C=C/C(=O)c3ccc(Br)cc3)cc2)ccn1 please.
5.45

Tell me measured pIC50 for CNC(=O)c1cc(Oc2ccc(C(=O)/C=C/c3ccc(Br)cc3)cc2)ccn1 please.
4.73

Tell me measured pIC50 for CNC(=O)c1cc(Oc2ccc(C(=O)/C=C/c3ccc(F)cc3)cc2)ccn1 please.
5.21

Tell me measured pIC50 for CNC(=O)c1cc(Oc2ccc(C(=O)/C=C/c3ccc(Cl)cc3Cl)cc2)ccn1 please.
5.04
